Data origin: patent US20220273759A1

Test system: human rhabdosarcoma cells
Test Name: Recoding via quantification of pRB and P53, rhabdosarcoma cells
Type: cell-based
Experimental Conditions: Table 6, peptide in association with PET
Parameter: P53 (%). Scope: all listed entries.
Your answer should be a plain number; it is taken to be in %.

Example entries and their recorded answers appear below.
{"columns": ["Input Sequence", "Measurement Kind", "Uom", "Endpoint Value"],
 "data": [
  ["RVPSTSSTQVKMSAISMLYL (Non-cyclic GFR-binding peptide) [SEQ ID NO: 213]", "P53 (%)", "%", 26],
  ["STPPTSSSRVQLSAISMLYL (Non-cyclic GFR-binding peptide) [SEQ ID NO: 212]", "P53 (%)", "%", 27],
  ["GIPEPSSVSQEESSLSTLFF (Non-cyclic GFR-binding peptide) [SEQ ID NO: 214]", "P53 (%)", "%", 31]
]}

Q: Give P53 (%) for KIPKASSSRVRLSSLSTLFF (Non-cyclic GFR-binding peptide) [SEQ ID NO: 215]
Ans: 30

###

Test system: mesenchymal chondrosarcoma cells
Test Name: Recoding via quantification of pRB and P53, chondrosarcoma cells
Format: cell-based
Experimental Conditions: Table 6, peptide in association with PET
Measurement Kind: pRB (%)
Your answer should be a plain number; it is taken to be in %.

Example entries and their recorded answers appear below.
{"columns": ["Input Sequence", "Study System", "pRB (%)"],
 "data": [
  ["STPPTSSAPVGQSPISMLYI (Non-cyclic GFR-binding peptide) [SEQ ID NO: 220]", "mesenchymal chondrosarcoma cells", 15],
  ["GIPEPSSVSQELSATSMLYY (Non-cyclic GFR-binding peptide) [SEQ ID NO: 218]", "mesenchymal chondrosarcoma cells", 17],
  ["GIPEPSSAPTRLEPISMLYL (Non-cyclic GFR-binding peptide) [SEQ ID NO: 222]", "mesenchymal chondrosarcoma cells", 8],
  ["STPPTSSVPTEVSPINTLYF (Non-cyclic GFR-binding peptide) [SEQ ID NO: 224]", "mesenchymal chondrosarcoma cells", 13],
  ["KIPKASSTPTRLSPISMLFI (Non-cyclic GFR-binding peptide) [SEQ ID NO: 221]", "mesenchymal chondrosarcoma cells", 21],
  ["KIPKASSVSQQLEPISTLYL (Non-cyclic GFR-binding peptide) [SEQ ID NO: 223]", "mesenchymal chondrosarcoma cells", 9]
]}

Q: Given KIPKASSTQVGQSATSILYY (Non-cyclic GFR-binding peptide) [SEQ ID NO: 219] , report its pRB (%) on mesenchymal chondrosarcoma cells.
Ans: 14

###

Test system: human adenocarcinoma cells
Test Name: Recoding via quantification of pRB and P53, adenocarcinoma cells
Type: cell-based
Experimental Conditions: Table 6, peptide in association with PET
Measurement Kind: pRB (%)
Your answer should be a plain number; it is taken to be in %.

Example entries and their recorded answers appear below.
{"columns": ["Input Sequence", "Uom", "Endpoint Value"],
 "data": [
  ["GIPEPSSAPVDMRPVQIRKI (Non-cyclic GFR-binding peptide) [SEQ ID NO: 238]", "%", 23],
  ["STPPTSSVSQKMKPLSILYV (Non-cyclic GFR-binding peptide) [SEQ ID NO: 228]", "%", 18],
  ["KIPKASSTQVRLRSVKTAKV (Non-cyclic GFR-binding peptide) [SEQ ID NO: 236]", "%", 25]
]}

We next turn to a different sequence, shown below.
Q: Give pRB (%) for RVPSTSSVPEKMEPLTMLYY (Non-cyclic GFR-binding peptide) [SEQ ID NO: 231]
Ans: 18
